Measured pIC50 of individual entries
Target: cloned human δ receptor (Homo sapiens, UniProt P41143)
Sequence (P41143 whole entry): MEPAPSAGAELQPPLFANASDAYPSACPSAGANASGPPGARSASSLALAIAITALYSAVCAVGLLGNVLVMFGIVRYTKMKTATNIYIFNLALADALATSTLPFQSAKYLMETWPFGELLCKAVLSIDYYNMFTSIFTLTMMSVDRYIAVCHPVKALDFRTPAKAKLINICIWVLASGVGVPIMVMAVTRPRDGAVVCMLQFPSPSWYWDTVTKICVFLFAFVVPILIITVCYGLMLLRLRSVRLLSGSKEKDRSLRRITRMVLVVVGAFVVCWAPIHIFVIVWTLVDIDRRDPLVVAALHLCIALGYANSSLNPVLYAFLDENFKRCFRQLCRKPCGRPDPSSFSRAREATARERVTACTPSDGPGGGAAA
Assay: δ receptor binding assay, displacement of 125I-Deltorphin II
pIC50: −log10 of the molar value.

The cases that follow already have their pIC50 on record.
Compound: CCN(CC)C(=O)c1ccc(C(=C2CCN(Cc3cncs3)CC2)c2cccc(NC(=O)OC)c2)cc1 [Compound 5]
Experimental target: cloned human δ receptor (Homo sapiens, UniProt P41143)
pIC50: 9.46 to 9.52
--
Compound: CCN(CC)C(=O)c1ccc(C(=C2CCN(Cc3ccco3)CC2)c2cccc(NC(=O)OC)c2)cc1 [Compound 2]
Experimental target: cloned human δ receptor (Homo sapiens, UniProt P41143)
pIC50: 9.46 to 9.52
--
Compound: CCN(CC)C(=O)c1ccc(C(=C2CCN(Cc3cccs3)CC2)c2cccc(NC(=O)OC)c2)cc1 [Compound 1]
Experimental target: cloned human δ receptor (Homo sapiens, UniProt P41143)
pIC50: 9.46 to 9.52

// moving on: another record for pIC50
Please give the measured pIC50 for this compound: CCN(CC)C(=O)c1ccc(C(=C2CCN(Cc3ccccc3)CC2)c2cccc(NC(=O)OC)c2)cc1 [Compound 3]
9.32
